Sourced from the supplement of paper PMC7877785

Assay: self-splicing fitness, log relative to wild type (ln ratio); higher = more splicing; Tetrahymena group I intron in knt gene, E. coli kanamycin selection, DiMSum; sequences stand for … in CUCUCU…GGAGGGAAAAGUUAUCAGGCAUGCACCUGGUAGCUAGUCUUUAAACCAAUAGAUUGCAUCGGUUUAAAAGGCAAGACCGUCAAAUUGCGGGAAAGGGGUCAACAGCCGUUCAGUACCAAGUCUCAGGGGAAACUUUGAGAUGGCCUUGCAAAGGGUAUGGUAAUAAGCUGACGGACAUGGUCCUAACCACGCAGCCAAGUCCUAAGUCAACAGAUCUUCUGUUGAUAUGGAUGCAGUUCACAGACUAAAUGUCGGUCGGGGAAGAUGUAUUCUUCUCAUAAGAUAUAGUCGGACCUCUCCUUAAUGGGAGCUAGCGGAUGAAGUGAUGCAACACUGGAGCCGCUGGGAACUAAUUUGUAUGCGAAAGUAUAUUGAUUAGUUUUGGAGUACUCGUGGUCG;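 note: selection with 25 µg/mL kanamycin versus none on LB agar overnight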
Details: 30 °C
Listed below: self-splicing fitness (ln) values for each entry.
API doc: respond with a numeric literal and nothing else, no unit.

A selection of reference data follows.
# sequence-input, quantitative-readout
records = [
    ("GAGAAGCAAUAUUACGCCUA", -0.659),
    ("AUACAGCAAUAUUACGCUCC", -1.47),
]

Task: Form field: reported self-splicing fitness (ln) of GGACAGCAAUAUUACGUGGU
Output: -2.9

Task: Form field: reported self-splicing fitness (ln) of GAUGAGCAAUAUUACGCGCC
Output: -3.17

Task: Form field: reported self-splicing fitness (ln) of GCUAAGCAAUAUUACGCGAU
Output: -2.05

Task: Form field: reported self-splicing fitness (ln) of GUUGAGCAAUAUUACGCGGU
Output: -3.32

Task: Form field: reported self-splicing fitness (ln) of UACAAGCAAUAUUACGUCGC
Output: -2.94

Task: Form field: reported self-splicing fitness (ln) of GGGUAGCAAUAUUACGGAUU
Output: -0.431

Task: Form field: reported self-splicing fitness (ln) of CGCUAGCAAUAUUACGGCGU
Output: -4.23

Task: Form field: reported self-splicing fitness (ln) of GUUUAGCAAUAUUACGUUGU
Output: -4.02

###

Assay: self-splicing fitness, log relative to wild type (ln ratio); higher = more splicing; Tetrahymena group I intron in knt gene, E. coli kanamycin selection, DiMSum; sequences stand for … in CUCUCU…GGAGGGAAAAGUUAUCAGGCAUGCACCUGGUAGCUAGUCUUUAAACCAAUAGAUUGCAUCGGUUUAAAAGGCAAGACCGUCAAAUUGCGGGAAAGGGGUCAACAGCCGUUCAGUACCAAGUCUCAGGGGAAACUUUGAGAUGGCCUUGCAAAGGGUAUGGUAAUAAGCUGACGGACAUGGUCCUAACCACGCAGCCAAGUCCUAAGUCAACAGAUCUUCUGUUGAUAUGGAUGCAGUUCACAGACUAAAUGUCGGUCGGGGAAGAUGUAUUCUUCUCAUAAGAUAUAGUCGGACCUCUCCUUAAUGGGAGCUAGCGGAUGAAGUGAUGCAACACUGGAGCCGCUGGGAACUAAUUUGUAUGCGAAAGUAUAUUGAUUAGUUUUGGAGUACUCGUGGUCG
Settings: 37 °C
reported-metric: self-splicing fitness (ln)

Task: Form field: reported self-splicing fitness (ln) of AGCUAGCAAUAUUACGCCCU
Output: 0.627

Task: Form field: reported self-splicing fitness (ln) of GACAAGCAAUAUUACGACGA
Output: 0.296

Task: Form field: reported self-splicing fitness (ln) of AGACAGCAAUAUUACGUCCA
Output: -0.591

Task: Form field: reported self-splicing fitness (ln) of UAAAAGCAAUAUUACGAAUA
Output: -0.627

Task: Form field: reported self-splicing fitness (ln) of CCCUAGCAAUAUUACGGACU
Output: -2

Task: Form field: reported self-splicing fitness (ln) of GUGCAGCAAUAUUACGAGCU
Output: -0.353

Task: Form field: reported self-splicing fitness (ln) of CGGCAGCAAUAUUACGUGGA
Output: -1.72

Task: Form field: reported self-splicing fitness (ln) of GGUCAGCAAUAUUACGCUAA
Output: 0.512

Task: Form field: reported self-splicing fitness (ln) of AGGCAGCAAUAUUACGAUUG
Output: -2.4

Task: Form field: reported self-splicing fitness (ln) of AGUCAGCAAUAUUACGCCGU
Output: -0.55

Task: Form field: reported self-splicing fitness (ln) of ACUAAGCAAUAUUACGAACU
Output: 0.532

Task: Form field: reported self-splicing fitness (ln) of CAAGAGCAAUAUUACGCUUU
Output: -2.58

###

Test: self-splicing fitness, log relative to wild type (ln ratio); higher = more splicing; Tetrahymena group I intron in knt gene, E. coli kanamycin selection, DiMSum; sequences stand for … in CUCUCU…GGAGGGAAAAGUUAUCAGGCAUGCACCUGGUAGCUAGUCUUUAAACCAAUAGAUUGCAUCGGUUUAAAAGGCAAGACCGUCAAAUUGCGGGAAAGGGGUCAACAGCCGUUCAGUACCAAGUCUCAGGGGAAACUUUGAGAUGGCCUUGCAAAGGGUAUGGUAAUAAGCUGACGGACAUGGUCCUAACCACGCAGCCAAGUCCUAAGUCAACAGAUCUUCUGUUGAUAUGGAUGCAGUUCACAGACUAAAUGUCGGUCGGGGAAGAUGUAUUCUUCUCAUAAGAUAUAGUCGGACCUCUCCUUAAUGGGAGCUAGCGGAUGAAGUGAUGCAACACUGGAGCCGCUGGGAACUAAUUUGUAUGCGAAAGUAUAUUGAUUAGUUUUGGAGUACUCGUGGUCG
Conditions: 30 °C
reported-metric: self-splicing fitness (ln)
API doc: respond with a numeric literal and nothing else, no unit.

A selection of reference data follows.
# sequence-input, self-splicing fitness (ln)
rows = [
    ("UCGAAGCAAUAUUACGUUCG", -1.54),
    ("ACGAAGCAAUAUUACGAGGG", -3.54),
    ("CUAAAGCAAUAUUACGUUCG", 0.342),
]

Next, consider the following sequence.
Task: Form field: reported self-splicing fitness (ln) of CAUGAGCAAUAUUACGGGUG
Output: -3.68

###

Test: self-splicing fitness, log relative to wild type (ln ratio); higher = more splicing; Tetrahymena group I intron in knt gene, E. coli kanamycin selection, DiMSum; sequences stand for … in CUCUCU…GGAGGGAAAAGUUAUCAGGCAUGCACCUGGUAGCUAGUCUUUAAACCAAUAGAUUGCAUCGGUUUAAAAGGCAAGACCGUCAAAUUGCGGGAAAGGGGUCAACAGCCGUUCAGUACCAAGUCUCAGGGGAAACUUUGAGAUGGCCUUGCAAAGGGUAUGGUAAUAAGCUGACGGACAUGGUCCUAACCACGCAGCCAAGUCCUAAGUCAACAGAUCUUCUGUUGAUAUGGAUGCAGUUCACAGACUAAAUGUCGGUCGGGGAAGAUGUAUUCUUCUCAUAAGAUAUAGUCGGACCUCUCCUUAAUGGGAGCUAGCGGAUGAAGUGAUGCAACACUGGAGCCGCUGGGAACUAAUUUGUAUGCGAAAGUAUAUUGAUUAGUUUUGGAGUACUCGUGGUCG
Conditions: 37 °C
reported-metric: self-splicing fitness (ln)
API doc: respond with a numeric literal and nothing else, no unit.

A selection of reference data follows.
# sequence-input, self-splicing fitness (ln)
records = [
    ("GCUGAGCAAUAUUACGGUAG", -3.11),
    ("GGCUAGCAAUAUUACGAUUU", 0.68),
    ("GGCGAGCAAUAUUACGCCCA", -0.478),
    ("AGAGAGCAAUAUUACGACUC", -0.408),
    ("AAAAAGCAAUAUUACGCGGU", -0.538),
]

Task: Form field: reported self-splicing fitness (ln) of GGCGAGCAAUAUUACGGAUC
Output: 0.039

Task: Form field: reported self-splicing fitness (ln) of AACAAGCAAUAUUACGGCUU
Output: -0.539

Task: Form field: reported self-splicing fitness (ln) of AUUGAGCAAUAUUACGGUAU
Output: -1.59

###

Assay: self-splicing fitness, log relative to wild type (ln ratio); higher = more splicing; Tetrahymena group I intron in knt gene, E. coli kanamycin selection, DiMSum; sequences stand for … in CUCUCU…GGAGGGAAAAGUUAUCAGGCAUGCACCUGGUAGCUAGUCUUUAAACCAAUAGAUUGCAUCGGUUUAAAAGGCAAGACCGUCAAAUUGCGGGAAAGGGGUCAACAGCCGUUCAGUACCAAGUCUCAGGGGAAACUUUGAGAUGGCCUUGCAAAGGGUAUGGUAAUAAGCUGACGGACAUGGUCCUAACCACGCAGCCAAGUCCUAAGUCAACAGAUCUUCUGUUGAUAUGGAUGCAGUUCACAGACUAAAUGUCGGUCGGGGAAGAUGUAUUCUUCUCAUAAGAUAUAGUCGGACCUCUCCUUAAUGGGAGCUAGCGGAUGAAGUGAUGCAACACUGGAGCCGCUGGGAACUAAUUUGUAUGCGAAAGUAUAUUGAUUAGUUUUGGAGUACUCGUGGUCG
Conditions: 30 °C
Listed below: self-splicing fitness (ln) values for each entry.
API doc: respond with a numeric literal and nothing else, no unit.

# sequence-input, reported-metric, quantitative-readout
measured = [
    ("GCCUAGCAAUAUUACGUGAA", "self-splicing fitness (ln)", -0.836),
    ("GGAAAGCAAUAUUACGUGCG", "self-splicing fitness (ln)", -0.344),
    ("UUGAAGCAAUAUUACGCCGA", "self-splicing fitness (ln)", 0.633),
]

Task: Form field: reported self-splicing fitness (ln) of AAGGAGCAAUAUUACGCUAA
Output: -2.97

Task: Form field: reported self-splicing fitness (ln) of GGGAAGCAAUAUUACGCUAA
Output: -1.84
